system: Bacillus cereus; test: Antimicrobial activity against Bacillus cereus MTCC 7350 assessed as diameter of inhibition zone at 40 uM after 24 hrs by Kirby -Baur disc diffusion method; assay type: functional; details: MTCC 7350, 24 h, read-out: DIZ

Smiles code	Assayed system	zone of inhibition at 40 µM [mm]
COc1cc(/C=C/C(CC(/C=C/c2ccc(O)c(OC)c2)=N/c2ccc(S(=O)(=O)Nc3cc(C)on3)cc2)=N\c2ccc(S(=O)(=O)Nc3cc(C)on3)cc2)ccc1O	Bacillus cereus	16
COc1cc(/C=C/C(O)=C/C(/C=C/c2ccc(O)c(OC)c2)=N/c2ccc(S(=O)(=O)Nc3cc(C)on3)cc2)ccc1O	Bacillus cereus	18
COc1cc(/C=C/C(CC(/C=C/c2ccc(O)c(OC)c2)=N/c2ccc(S(=O)(=O)Nc3nc(C)cc(C)n3)cc2)=N\c2ccc(S(=O)(=O)Nc3nc(C)cc(C)n3)cc2)ccc1O	Bacillus cereus	18
COc1cc(/C=C/C(O)=C/C(/C=C/c2ccc(O)c(OC)c2)=N/c2ccc(S(=O)(=O)Nc3ccccn3)cc2)ccc1O	Bacillus cereus	16
COc1cc(/C=C/C(O)=C/C(/C=C/c2ccc(O)c(OC)c2)=N/c2ccc(S(=O)(=O)Nc3nc(C)cc(C)n3)cc2)ccc1O	Bacillus cereus	9
COc1ccc(NS(=O)(=O)c2ccc(/N=C(/C=C(O)/C=C/c3ccc(O)c(OC)c3)\C=C\c3ccc(O)c(OC)c3)cc2)nn1	Bacillus cereus	11

* * *

tested on: Bacillus cereus; assay: Antimicrobial activity against Bacillus cereus MTCC 7350 assessed as diameter of inhibition zone at 20 uM after 24 hrs by Kirby -Baur disc diffusion method; format: functional
Activity calls are given as the source filed them. The rule behind the calls is not given here.

Smiles code	diameter of the inhibition zone (DIZ)
COc1ccc(NS(=O)(=O)c2ccc(/N=N/c3c(/C=C/c4ccc(O)c(OC)c4)nn(-c4ccccc4)c3/C=C/c3ccc(O)c(OC)c3)cc2)nn1	inactive
COc1ccc(NS(=O)(=O)c2ccc(/N=N/C(C(=O)/C=C/c3ccc(O)c(OC)c3)=C(O)\C=C\c3ccc(O)c(OC)c3)cc2)nn1	inactive
COc1cc(/C=C/C(O)=C/C(/C=C/c2ccc(O)c(OC)c2)=N/c2ccc(S(=O)(=O)Nc3nc(C)cc(C)n3)cc2)ccc1O	inactive

* * *

Listing: zone of inhibition at 40 µM of selected compounds
test system: Bacillus cereus; assay: Antimicrobial activity against Bacillus cereus MTCC 7350 assessed as diameter of inhibition zone at 40 uM after 24 hrs by Kirby -Baur disc diffusion method; format: functional; conditions: MTCC 7350, 24 h, read-out: DIZ
Measure: zone of inhibition at 40 µM

Compound	Assayed system	Result
O=C(O)c1cn(C2CC2)c2cc(N3CCNCC3)c(F)cc2c1=O [CIPROFLOXACIN]	Bacillus cereus	34 mm
COc1ccc(NS(=O)(=O)c2ccc(/N=C(\C=C\c3ccc(O)c(OC)c3)CC(/C=C/c3ccc(O)c(OC)c3)=N/c3ccc(S(=O)(=O)Nc4ccc(OC)nn4)cc3)cc2)nn1	Bacillus cereus	17 mm
COc1cc(/C=C/C(CC(/C=C/c2ccc(O)c(OC)c2)=N/c2ccc(S(=O)(=O)Nc3ccccn3)cc2)=N\c2ccc(S(=O)(=O)Nc3ccccn3)cc2)ccc1O	Bacillus cereus	15 mm
COc1cc(/C=C/c2noc(/C=C/c3ccc(O)c(OC)c3)c2/N=N/c2ccc(S(=O)(=O)Nc3nc(C)cc(C)n3)cc2)ccc1O	Bacillus cereus	9 mm

Data provenance: ChEMBL document CHEMBL2384906
